This collection of values is drawn from patent US9988397B2.

target-desc: phosphorylated active hERK2 enzyme (Homo sapiens, UniProt P28482)
Sequence (P28482 whole entry): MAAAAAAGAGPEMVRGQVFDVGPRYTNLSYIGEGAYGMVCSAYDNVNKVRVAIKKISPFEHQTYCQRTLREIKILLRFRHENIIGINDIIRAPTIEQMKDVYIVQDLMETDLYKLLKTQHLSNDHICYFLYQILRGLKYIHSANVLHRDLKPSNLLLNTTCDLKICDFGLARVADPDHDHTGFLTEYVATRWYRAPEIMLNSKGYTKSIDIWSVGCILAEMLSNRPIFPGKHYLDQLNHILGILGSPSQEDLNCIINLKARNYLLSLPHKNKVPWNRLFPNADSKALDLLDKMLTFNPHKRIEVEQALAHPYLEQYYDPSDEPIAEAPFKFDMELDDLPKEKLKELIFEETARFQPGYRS
Flag rule - IC50 less than 100 nM flags rule met; the remaining entries get rule not met.

Cn1ncc2cc3nc(c21)Cn1cc(nn1)C[C@H](c1ccccc1)NC(=O)N3
rule met
COCCn1ncc2cc3nc(c21)Cn1cc(nn1)CC(c1ccccc1)NC(=O)N3 (centres unmarked)
rule not met
CCn1ncc2cc3nc(c21)/C=C\COC(C)(C)[C@@H](c1ccccc1)NC(=O)N3
rule not met
CCn1ncc2cc3nc(c21)OCCC[C@](C)(O)[C@H](c1ccccc1)NC(=O)N3
rule not met
CCn1ncc2cc3nc(c21)NCCCCC(c1ccccc1)NC(=O)N3 (centres unmarked)
rule met

Say whether its IC50 is strictly beneath 100 nM. Entry: CCn1ncc2cc3nc(c21)CCCO[C@@H](CO)[C@@H](c1ccccc1)NC(=O)N3
rule not met

Consider Cc1cc(-n2ncc3cc4nc(c32)Cn2cc(nn2)CC(c2ccccc2)NC(=O)N4)ccn1 (single isomer, unassigned) . Does its IC50 lie strictly below 100 nM?
rule met

# check: IC50 < 100 nM for Cn1ncc2cc3nc(c21)NCCCC[C@H](c1ccccc1)NC(=O)N3
rule met

----------
target-desc: phosphorylated active hERK2 enzyme (Homo sapiens, UniProt P28482)
Threshold check on IC50: strictly below 20 nM is TRUE; on or above 20 nM is FALSE.

See these solved cases before continuing.
CCn1ncc2cc3nc(c21)OCCC[C@@](C)(O)[C@H](c1ccccc1)NC(=O)N3
FALSE
CCn1ncc2cc3nc(c21)C[C@H](O)COC[C@H](c1cccc(F)c1)NC(=O)N3
TRUE
CCn1ncc2cc3nc(c21)C[C@@H](OC)COC[C@@H](c1ccccc1)NC(=O)N3 (stereo in doubt)
FALSE
CCn1ncc2cc3nc(c21)C[C@@H](O)COC[C@H](c1ccc(OC)c(F)c1)NC(=O)N3
TRUE
CCn1ncc2cc3nc(c21)CCCO[C@@H]([C@H](C)O)[C@@H](c1ccccc1)NC(=O)N3
TRUE
CCn1ncc2cc3nc(c21)C[C@H](O)COC[C@H](c1ccc(OC)c(F)c1)NC(=O)N3
TRUE

Identify whether the compound CCn1ncc2cc3nc(c21)NCCOC[C@H](c1ccccc1)NC(=O)N3 records IC50 below 20 nM.
TRUE

A record lists CCn1ncc2cc3nc(c21)OCCC[C@@H](O)[C@H](c1ccccc1)NC(=O)N3 . Is its IC50 below 20 nM?
FALSE

Please check: IC50 for Cn1ncc2cc3nc(c21)CCCOC[C@H](c1ccccc1)NC(=O)N3 , strictly under 20 nM or not?
TRUE

# TODO verify IC50 < 20 nM strictly for this compound: CN1CCCc2nc(cc3cnn(C)c23)NC(=O)N[C@@H](c2ccccc2)C1
FALSE

----------
target-desc: phosphorylated active hERK2 enzyme (Homo sapiens)
Reported pIC50 values follow for various compounds
Quick note: pIC50 values are minus log10 of concentrations in mol/L.

Guide cases for pIC50, answers given:
CCn1ncc2cc3nc(c21)CC(C)(O)COC[C@H](c1ccccc1)NC(=O)N3 (stereo partly drawn) [Example 5]
6.94
Cn1ncc2cc3nc(c21)COCCCC(c1ccccc1)NC(=O)N3 (stereo not drawn) [Example 32]
7.29
CCn1ncc2cc3nc(c21)C[C@@H](O)COC[C@H](c1cccc(Cl)c1)NC(=O)N3 [Example 55]
8.42

State pIC50 on phosphorylated active hERK2 enzyme (Homo sapiens). Entry: CCn1ncc2cc3nc(c21)CCCOC(C)(C)[C@H](c1ccccc1)NC(=O)N3 [Example 11]
7.79

Report value only: pIC50, phosphorylated active hERK2 enzyme (Homo sapiens), CCn1ncc2cc3nc(c21)C[C@@H](O)COC[C@H](c1ccc(Cl)c(F)c1)NC(=O)N3 [Example 53]
8.41

Fill: pIC50 (phosphorylated active hERK2 enzyme (Homo sapiens)) for this compound CCn1ncc2cc3nc(c21)OCCCCC(c1ccccc1)NC(=O)N3 (stereo not drawn) [Example 16]
7.07

Recall the reported pIC50 of CCn1ncc2cc3nc(c21)CCCO[C@H]([C@@H](C)O)[C@H](c1ccccc1)NC(=O)N3 [Example 45] when tested on phosphorylated active hERK2 enzyme (Homo sapiens).
6.54

Jot down pIC50 (phosphorylated active hERK2 enzyme (Homo sapiens)) of CCn1ncc2cc3nc(c21)CCCOC[C@H](c1ccccc1)NC(=O)N3 [Example 1] .
8.06
